All values here come from PubChem BioAssay (NCI).

- Tested on: OVCAR-3 ovarian
- experiment description: NCI tumour cell line growth inhibition, 48 h
measured attribute: TGI (µM)
Use µM as the unit, but write only the number.

Lookup: TGI / OVCAR-3 ovarian / Clc1ncnc2c1nc(C#Cc1ccccc1)n2Cc1ccccc1
21.6

Recall the recorded TGI for CC(C)=CCC/C(C)=C/Cc1c(O)ccc2c1[nH]c1cc(O)c(C)cc12 with OVCAR-3 ovarian and state it.
21.2

Give recorded TGI with OVCAR-3 ovarian for the following molecule: CS(=O)(=O)Nc1cc(-c2ccc3ncnc(Nc4ccc5c(cnn5Cc5ccc(F)cc5)c4)c3c2)cnc1Cl
3.3

# get_value(readout= TGI, system= OVCAR-3 ovarian) for O=C(NN1C(=O)CSC1c1ccc(Cl)cc1)c1[nH]c2ccc(F)cc2c1-c1ccccc1 (centres undefined)
3.53

Test system OVCAR-3 ovarian; read-out TGI; what value for Cc1c(C)c2ccc(OC/C=C3\CCC(=O)O3)cc2oc1=O ?
30.3

Notebook entry, OVCAR-3 ovarian assay: TGI of C1=NCCOCCN=Cc2ccccc2OCc2cccc(n2)COc2ccccc21 = ?
9.01

Query the reported TGI for OVCAR-3 ovarian; item: CC1CC[C@@]2(OC1)OC1C[C@H]3[C@@H]4CC[C@H]5CC(OC6OC(CO)C(OC7OC(CO)C(O)C(O)C7O)C(O)C6O)CCC5(C)[C@H]4CCC3(C)C1[C@@H]2C (some centres undefined)
14.6

Please state recorded TGI (tested on OVCAR-3 ovarian) of S=c1ssc(Sc2ccccn2)c1Cl
25.9

# value lookup — system OVCAR-3 ovarian, readout TGI, item NCCCc1ccc2oc3ccccc3c2c1
31.5

Form field - read-out: TGI; system: OVCAR-3 ovarian; submitted item: O=C(O)c1cc2c(s1)C(=O)c1sccc1C2=O
15.6

State its TGI on OVCAR-3 ovarian: O=C(Nc1ccc2c(c1)oc(=O)c1ccccc12)C(Cl)Cl
73.8

Record Nc1nc(OCc2ccccc2)nc2[nH]ncc12 : what is its TGI with OVCAR-3 ovarian?
25.2

# value lookup — system OVCAR-3 ovarian, readout TGI, item Cc1c2cnccc2nc2[nH]c3ccncc3c12
42.4

Record lookup: for OVCAR-3 ovarian, what TGI belongs to CC(C)(Br)C(=O)/C=C/c1ccccc1 ?
25.4

Recall the recorded TGI for CCOC(CCCN1CCC2(CC1)C(=O)N(C)CN2c1ccccc1)(OCC)c1ccc(F)cc1 with OVCAR-3 ovarian and state it.
26.8

Tell me reported TGI for O=C1C(=O)N(C2C3CC4CC(C3)CC2C4)C(=O)C(=O)C1c1nc2ccccc2o1 (centres undefined) , tested with OVCAR-3 ovarian.
54

----------
I'd appreciate it if you could supply TGI values for the items below.
- Test system: NCI-H226 lung
- experiment description: NCI tumour cell line growth inhibition, 48 h

Requested read-out: TGI. Entry: COc1ccc2c(c1)C(=O)c1c-2n(CCCN2CCOCC2)c(=O)c2ccccc12
7.57 µM

Return reported TGI; argument: Nc1nc(Nc2cccc(F)c2)nc2ccccc12
> 100 µM

Recorded TGI for CO[C@@H](c1ccccc1)[C@H](O)[C@](O)(c1ccccc1)P(=O)(OC)OC , please?
> 100 µM

I am curious: what TGI value has been reported for CC1=CC(=O)C(C(C)=Nc2ccccc2Cl)C(=O)O1 (centres undefined) ?
> 100 µM

Param item = Oc1cc(Cl)ccc1Oc1ccc(Cl)cc1Cl ; retrieve measured TGI.
6.82 µM

Item under review: O=C(Cc1ccccc1)N/N=C(\C1=Nc2ccc([N+](=O)[O-])cc2NC1O)C(O)c1ccc([N+](=O)[O-])cc1 (centres undefined) . Reported TGI?
> 100 µM

Dear colleague, I am looking for the recorded TGI of the following compound: O=C(CC(C(=O)c1ccsc1)c1ccccc1)c1cccs1 (centres undefined)
> 100 µM

What value of TGI has been recorded for this entry: CC1=CCS(=O)(=O)C1C(O)C1=C(C)CCCC1(C)C (centres undefined)
> 100 µM

Item under review: N/N=C(\Cc1ccccc1)NN=C(N)N . Reported TGI?
> 100 µM

----------
- System: CAKI-1 renal
- experiment description: NCI tumour cell line growth inhibition, 48 h
Please respond with reported TGI for every item in the list.
Write down the numeric answer in µM and omit the unit.

What measured TGI goes with CN(C)CCNC(=O)c1ccc(Cl)c2c(Nc3ccc(S(N)(=O)=O)cc3)c3ccccc3nc12 ?
17.1

Please give the measured TGI for this molecule: COc1ccc2c(c1)nc(N)c1c3cccnc3cn21
16.3

----------
- System: T-47D breast
- experiment description: NCI tumour cell line growth inhibition, 48 h; in the data active means GI50 below about 0.43 µM; inactive means the rest
Your reply should match one of these outcome classes. y (active), n (inactive)

What is the recorded call for this compound in the test? CS(=O)(=O)Nc1cc(-c2ccc3ncnc(Nc4ccc5c(cnn5Cc5ccc(F)cc5)c4)c3c2)cnc1Cl
y

// param item: CCOC(=O)N1CCN(S(=O)(=O)c2oc(-c3ccc(Cl)cc3)nc2C#N)CC1 ; yields the recorded call
n

What classification did N#CC1C(N)=NNC12Nc1ccccc1N2 (stereo unspecified) end up with in this test?
n

Status in this test for CC(C)OC(=O)c1ccc2[nH]c(O)c(C(=Nc3ccc(N(C)C(=O)CN4CCN(C)CC4)cc3)c3ccccc3)c2c1 ?
n

Dear all, I need the recorded test outcome for CCc1c[nH]c2ncnc(N3CC[C@@](N)(CNC(=O)c4ccc(F)cc4F)C3)c12 , thank you.
n

Hi team, can someone confirm the assay call for COc1ccc2c(c1)C(=O)c1c-2n(CCCN2CCOCC2)c(=O)c2ccccc12 ?
n

----------
- Tested on: K-562 leukemia
- experiment description: NCI tumour cell line growth inhibition, 48 h
Returns True if the recorded TGI is greater than or equal to 30 µM, and False otherwise.

Hi team, for C=C(C)CCC(C)N1CCC(N2CCC(C(=O)NCCc3ccccc3)CC2)CC1 (centres undefined) , is the recorded TGI at or above 30 µM?
True

Is TGI at least 30 µM? Consider CC(=O)O[C@]12CCC[C@H]1C1(O)C(O)CCC[C@H]12 (some centres undefined)
True

Answer whether TGI of COc1ccc(NCC(=O)Nn2c(C)nc3ccc(S(=O)(=O)Nc4ccc(OC)cc4)cc3c2=O)cc1 is greater than or equal to 30 µM.
True

Hi team, for CCCCCCCCCCCC1N=C(N)NC(CCCO)=C1C(=O)OC (centres undefined) , is the recorded TGI at or above 30 µM?
False

Entry O=c1cccccc1NCCCCCCCCCNc1cccccc1=O : is its TGI no less than 30 µM?
False

Textbook exercise: given the entry CC1CC[C@@]2(OC1)OC1C[C@H]3[C@@H]4CC[C@H]5CC(OC6OC(CO)C(OC7OC(CO)C(O)C(O)C7O)C(O)C6O)CCC5(C)[C@H]4CCC3(C)C1[C@@H]2C (some centres undefined) , state whether its TGI is greater than or equal to 30 µM.
True

Evaluate CC(=O)Nc1ccc(N2C(=O)/C(=C\c3cccc(Oc4ccccc4)c3)SC2c2ccccc2)cc1 (centres undefined) : TGI at minimum 30 µM?
True

For this molecule, is measured TGI 30 µM or higher? Cn1c(COC(=O)NC2CCCCC2)c(COC(=O)NC2CCCCC2)c2ccc3cc(Cl)c(Cl)cc3c21
False

Reported TGI reaches at least 30 µM for O=C(CC(C(=O)c1cccs1)c1ccsc1)c1ccsc1 (centres undefined) ?
True

----------
Give TGI for every item shown.
- Tested on: NCI-H522 lung
- experiment description: NCI tumour cell line growth inhibition, 48 h
// units = µM; emit number, no label

Return reported TGI; argument: Cc1ccc(-n2cnc3c(N/N=C4\SCC(=O)N4c4ccccc4)ncnc32)cc1
7.28

What value of TGI has been recorded for this entry: CCOC(=O)c1c(C)n(Cc2ccc(Cl)cc2Cl)c2c1cc1oc(=O)c(=O)n3c(Cc4ccccc4)nc2c13
25.5

Given the entry COc1ccc(/C=C(\NC(=O)c2ccccc2)C(=O)NN(C)c2ccnc3cc(Cl)ccc23)cc1OC , report its measured TGI.
44.1

Given the compound O=C1CC(CC(OCc2ccccc2)C(COCc2ccccc2)OCc2ccccc2)CC(=O)N1 (stereo not given) , what is its reported TGI?
61.7

Would you mind telling me what TGI value was observed for CC1CC[C@@]2(OC1)OC1C[C@H]3[C@@H]4CC[C@H]5CC(OC6OC(CO)C(OC7OC(CO)C(O)C(O)C7O)C(O)C6O)CCC5(C)[C@H]4CCC3(C)C1[C@@H]2C (stereo not given in full) ?
13.8

----------
- Tested on: OVCAR-4 ovarian
- experiment description: NCI tumour cell line growth inhibition, 48 h; in the data active = GI50 below about 0.43 µM; inactive = the rest
One label from this list, please: active, inactive

Which outcome did this test record for the molecule Cc1ccc2c(c1)ncn2-c1ncnc2c1CC(C)c1ccccc1N2C (centres undefined) ?
inactive

What did this assay record as the result for COc1ccccc1-c1c(C)nn2c(NCc3ccccn3)cc(C)nc12 ?
inactive

Could you check what this test reported for COC(=O)[C@@H]1CCCN1C(=O)[C@@H]1CCCN1C(=O)[C@@H](Cc1c[nH]c2ccccc12)NC(=S)Nc1cc(C(F)(F)F)cc(C(F)(F)F)c1 ?
inactive

Returns: the outcome recorded for Nc1nc(Nc2cccc(F)c2)nc2ccccc12 in this assay.
inactive

For this molecule, state the assay outcome: Cn1cc(-c2ccc(CNc3cc(-c4cnc5cc(OCCCN6CCCC6)ccn45)ncn3)cc2)cn1
inactive

Recorded test outcome, item CC(=O)OC1C2(CC3N4C(=O)C5(CO)SSC4(CC31O)C(=O)N5C)OC(C)C(C)(C)C2=O (centres undefined)
active

Which outcome did this test record for the molecule Cn1cc(-c2ccc3c(c2)CCN3C(=O)Cc2cccc(C(F)(F)F)c2)c2c(N)ncnc21 ?
inactive

Look up the recorded call for CS(=O)(=O)Nc1cc(-c2ccc3ncnc(Nc4ccc5c(cnn5Cc5ccc(F)cc5)c4)c3c2)cnc1Cl in this test.
inactive

Assay result, entry COc1cc2cc(Oc3ccc(NC(=O)c4ccc(Cl)c(C(F)(F)F)c4)cc3)c(C)nc2cc1OC — outcome?
inactive
